# study.system: Chromo domain-containing protein 1 (Saccharomyces cerevisiae (strain ATCC 204508 / S288c) (Baker's yeast)) (UniProt P32657)
# Sequence (P32657 whole entry, the tested form may be a part): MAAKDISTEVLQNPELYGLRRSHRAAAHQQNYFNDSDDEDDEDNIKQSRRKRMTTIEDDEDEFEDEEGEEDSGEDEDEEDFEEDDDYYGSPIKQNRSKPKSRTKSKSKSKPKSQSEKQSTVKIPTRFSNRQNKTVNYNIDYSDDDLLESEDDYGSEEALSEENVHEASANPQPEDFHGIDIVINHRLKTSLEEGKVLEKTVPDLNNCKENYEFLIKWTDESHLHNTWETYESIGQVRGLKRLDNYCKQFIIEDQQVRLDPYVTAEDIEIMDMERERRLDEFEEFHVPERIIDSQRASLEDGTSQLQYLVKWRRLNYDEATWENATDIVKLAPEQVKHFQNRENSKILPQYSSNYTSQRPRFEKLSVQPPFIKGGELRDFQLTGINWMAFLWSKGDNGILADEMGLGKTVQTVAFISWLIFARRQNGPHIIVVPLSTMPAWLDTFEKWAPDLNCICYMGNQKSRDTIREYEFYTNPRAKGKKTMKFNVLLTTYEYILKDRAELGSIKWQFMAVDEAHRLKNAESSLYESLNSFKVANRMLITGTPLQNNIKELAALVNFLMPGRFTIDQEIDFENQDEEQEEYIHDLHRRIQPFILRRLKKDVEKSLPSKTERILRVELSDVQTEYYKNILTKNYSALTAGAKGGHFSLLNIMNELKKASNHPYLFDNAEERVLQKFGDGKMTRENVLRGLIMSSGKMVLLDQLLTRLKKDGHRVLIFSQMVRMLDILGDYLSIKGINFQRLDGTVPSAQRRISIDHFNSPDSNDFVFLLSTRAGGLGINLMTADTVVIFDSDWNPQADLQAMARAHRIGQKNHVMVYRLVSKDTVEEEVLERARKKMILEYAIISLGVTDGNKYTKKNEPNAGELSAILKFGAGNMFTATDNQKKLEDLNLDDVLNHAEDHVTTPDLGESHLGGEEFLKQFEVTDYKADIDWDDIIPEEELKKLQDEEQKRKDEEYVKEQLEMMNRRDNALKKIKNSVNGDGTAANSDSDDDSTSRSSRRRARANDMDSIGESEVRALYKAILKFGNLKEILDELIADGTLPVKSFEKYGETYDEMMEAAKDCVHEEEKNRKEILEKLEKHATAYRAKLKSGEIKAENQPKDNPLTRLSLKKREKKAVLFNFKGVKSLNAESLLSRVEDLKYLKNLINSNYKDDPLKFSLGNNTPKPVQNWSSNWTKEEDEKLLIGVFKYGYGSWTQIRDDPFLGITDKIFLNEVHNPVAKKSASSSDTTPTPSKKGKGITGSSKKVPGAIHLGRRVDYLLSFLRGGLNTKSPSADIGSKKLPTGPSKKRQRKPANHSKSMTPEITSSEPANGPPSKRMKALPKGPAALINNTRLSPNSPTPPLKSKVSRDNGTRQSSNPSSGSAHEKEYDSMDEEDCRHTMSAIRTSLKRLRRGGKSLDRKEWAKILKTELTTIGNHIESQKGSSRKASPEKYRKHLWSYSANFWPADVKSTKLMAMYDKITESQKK
# method.notes: ScCHD-1 Enzyme Inhibition Assay
# Type: functional
# Design: scale not given: in the data most compounds retested in dose-response had high values
# condition.label: 30 µM
The following molecules are listed with their measured Percent Effect values.
property.label: Percent Effect (%)

[[record]]
molecule = "CCn1cnnc1CNC(=O)c1cc(Cl)ccc1OC"
property_label = "Percent Effect"
units = "%"
quantitative_result = -11.8

[[record]]
molecule = "COc1cccc(-n2c(C)cc(C(=O)O)c2C)c1"
property_label = "Percent Effect"
units = "%"
quantitative_result = -2.26

[[record]]
molecule = "CCCn1nc2c(cc1=O)CN(CCS(C)(=O)=O)CC2"
property_label = "Percent Effect"
units = "%"
quantitative_result = -11.1

[[record]]
molecule = "CN(C)C(C(=O)N1CCC(N2CCSCC2)CC1)c1ccccc1F (stereo unspecified)"
property_label = "Percent Effect"
units = "%"
quantitative_result = -1.59

[[record]]
molecule = "NC(=O)N1CC[C@H](O)[C@@H]1Cc1cccnc1"
property_label = "Percent Effect"
units = "%"
quantitative_result = -2.76

[[record]]
molecule = "CCOCC(O)CN1CCN(C(=O)c2cnc3n[nH]c(C)c3c2)CC1 (stereo unspecified)"
property_label = "Percent Effect"
units = "%"
quantitative_result = -0.703

